# assay.system: T1, Human purified factor H (human, UniProt P08603 19-1231)
# T1 construct: mature; Full length plasma-purified protein; also called FH; full length FH
# T1 sequence (P08603 19-1231): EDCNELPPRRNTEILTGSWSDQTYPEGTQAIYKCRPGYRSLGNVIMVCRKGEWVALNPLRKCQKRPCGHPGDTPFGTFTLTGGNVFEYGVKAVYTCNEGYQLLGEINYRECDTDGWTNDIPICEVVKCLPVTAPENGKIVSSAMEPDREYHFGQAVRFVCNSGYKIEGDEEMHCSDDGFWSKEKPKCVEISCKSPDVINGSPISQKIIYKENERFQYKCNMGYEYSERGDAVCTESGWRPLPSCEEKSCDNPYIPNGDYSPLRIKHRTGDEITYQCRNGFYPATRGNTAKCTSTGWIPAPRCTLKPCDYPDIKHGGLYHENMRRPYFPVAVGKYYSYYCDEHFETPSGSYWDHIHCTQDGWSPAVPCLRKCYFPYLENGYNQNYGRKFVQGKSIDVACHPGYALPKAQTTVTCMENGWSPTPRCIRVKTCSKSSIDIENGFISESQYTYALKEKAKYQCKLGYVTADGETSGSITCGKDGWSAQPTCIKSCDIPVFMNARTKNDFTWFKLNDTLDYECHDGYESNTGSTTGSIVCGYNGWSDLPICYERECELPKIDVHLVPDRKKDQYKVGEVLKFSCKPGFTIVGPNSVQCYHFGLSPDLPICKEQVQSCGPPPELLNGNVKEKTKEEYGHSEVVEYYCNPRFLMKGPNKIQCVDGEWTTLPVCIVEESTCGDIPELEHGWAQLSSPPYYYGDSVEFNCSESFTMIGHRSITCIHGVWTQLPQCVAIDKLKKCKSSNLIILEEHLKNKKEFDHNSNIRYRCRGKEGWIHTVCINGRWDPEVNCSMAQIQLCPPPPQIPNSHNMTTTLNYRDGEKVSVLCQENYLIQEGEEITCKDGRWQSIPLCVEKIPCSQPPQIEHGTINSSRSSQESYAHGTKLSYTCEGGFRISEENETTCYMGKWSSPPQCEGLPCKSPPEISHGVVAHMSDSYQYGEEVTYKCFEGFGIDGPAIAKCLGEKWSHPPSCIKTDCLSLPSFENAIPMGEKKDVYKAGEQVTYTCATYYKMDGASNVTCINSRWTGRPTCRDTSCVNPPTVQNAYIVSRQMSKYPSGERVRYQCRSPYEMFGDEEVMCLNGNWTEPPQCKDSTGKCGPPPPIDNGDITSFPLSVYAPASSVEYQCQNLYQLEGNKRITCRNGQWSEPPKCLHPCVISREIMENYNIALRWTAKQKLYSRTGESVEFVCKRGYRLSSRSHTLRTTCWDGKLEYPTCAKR
# procedure.summary: SPR (BiaCore T200), antibody captured on Protein A or Protein G chip, full length FH flowed over
Quick list: koff per entry.

See these solved cases before continuing.
Give the measured koff of Antibody 4 (antibody, V domains shown) VH: QVQLQESGPGLVKPSQTLSLTCTVSGFSLTNYGVYWIRQHPGKGLEWIGVIWSGGTTEYNPSMKSRVTISKDTSKNQVSLKLSSVTAADTAVYYCARNFGNYAMDFWGQGTSVTVSS VL: DIQLTQSPSSLSASVGDRVTITCRASTSVTYMHWYQQKPGKAPKPLIYASSNLASGVPSRFSGSGSGTDFTLTISSLQPEDFATYYCQHRSSSNPLTFGAGTKLELK .
3.14e-05 s⁻¹

Give the measured koff of Antibody 3 (antibody, V domains shown) VH: QVQLQESGPGLVKPSQTLSLTCTVSGFSLTNYGVYWIRQHPGKGLEWIGVVWSGGTTEFNPSLKSRVTISKDTSKNQVSLKLSSVTAADTAVYYCARNFGNYAMDYWGQGTSVTVSS VL: DIQLTQSPSSLSASVGDRVTITCRASTSVTYMHWYQQKPGKAPKPLIYASSNLASGVPSRFSGSGSGTDFTLTISSLQPEDFATYYCQHRSSSNPLTFGAGTKLELK .
4.07e-05 s⁻¹

Give the measured koff of FHR-1.3B4 (antibody, V domains shown, Mouse monoclonal antibody raised in BALB/c mice against recombinant human FHR-1 (hybridoma); kappa light chain implied by capture on rat anti-mouse kappa RM19; also called anti-FHR-1.3B4; anti-FHR-1 3B4) VH: QVQLRQSGPGLVQPSQSLSITCTVSGFSLTNYGVYWVRQSPGKGLEWLGVIWSGGTTDYSAAFISRLSISKDNSKSQVFFKMNSLQADDTAIYYCARNFGNYAMDYWGQGTSVTVSS VL: QIVLSQSPTILSASPGEKVTMTCRASSSVTYMHWYQQKPGSSPKPWIYATSNLASGVPARFSGSGSGTSYSLTISRVEAEDAATYYCQQRSSSNPLTFGAGTKLELK .
5.32e-05 s⁻¹

Next binder, please.
Give the measured koff of Antibody 2 (antibody, V domains shown) VH: QVQLQESGPGLVKPSQTLSLTCTVSGFSLTNYGVYWIRQHPGKGLEWIGVIWSGGTTEYNPSMKSRVTISKDTSKNQVSLKLSSVTAADTAVYYCARNFGNYAMDFWGQGTSVTVSS VL: DIQLTQSPSSLSASVGDRVTITCKASSSVTYLHWYQQKPGKAPKPLIYATSNLASGVPSRFSGSGSGTDFTLTISSLQPEDFATYYCQHRSSSNPLTFGAGTKLELK .
3.06e-05 s⁻¹
